# System: Mtb H37Rv
# MEASUREMENT PROTOCOL: Antimycobacterial activity assay (resazurin colorimetric, whole-cell)
# Type: cell-based, Mycobacterium tuberculosis
# DETAILS: Mycobacterium tuberculosis, H37RV, 168 h, Mtb H37Rv; 7H9 with low BSA (0.05% albumin, ADN), one week; read-out: MIC90 7H9-Low BSA
TEST READOUT: MIC90
Number first, unit second: that is the form wanted.

The examples below pair each entry with its known result.
MOLECULE SMILES: Brc1ccc2c(c1)N(c1nccc(CCc3c[nH]c4ccccc34)n1)CCO2
MIC90: 50 µM

MOLECULE SMILES: c1ccc2c(CCc3ccnc(N4CCOCC4)n3)c[nH]c2c1
MIC90: 25 µM

MOLECULE SMILES: FC(F)(F)Oc1ccc2[nH]cc(CCc3ccnc(N4CCOCC4)n3)c2c1
MIC90: 25 µM

MOLECULE SMILES: COC1CN(c2nccc(CCc3c[nH]c4ccc(Cl)cc34)n2)C1
MIC90: 100 µM

MOLECULE SMILES: c1ccc2c(CCc3ccnc(N4CCSCC4)n3)c[nH]c2c1
MIC90: 100 µM

The recorded MIC90 for entry Fc1ccc2[nH]cc(CCc3ccnc(N4CCOCC4)n3)c2c1 equals 50 µM

The recorded MIC90 for entry Brc1ccc2[nH]cc(CCc3ccnc(N4CCCO4)n3)c2c1 equals 200 µM

The recorded MIC90 for entry c1ccc2c(CCc3ccnc(N4CCCOCC4)n3)c[nH]c2c1 equals 50 µM

The recorded MIC90 for entry COC1CN(c2nccc(CCc3c[nH]c4ccccc34)n2)C1 equals 25 µM

----------
Listed here: molecules with reported Kd for CYP121A1 (Mycobacterium tuberculosis).
Please respond with the number in µM and leave the unit unwritten.

The examples below pair each entry with its known result.
MOLECULE: Ic1ccc2[nH]cc(CCc3ccncc3)c2c1 [Compound 42]
Kd / µM: 3.2
//
MOLECULE: FC(F)(F)Oc1ccc2[nH]cc(CCc3ccncc3)c2c1 [Compound 44]
Kd / µM: 12.7
//
MOLECULE: c1ccc2c(CCc3ccncc3)c[nH]c2c1 [Compound 7]
Kd / µM: 483
//
MOLECULE: COc1ccc2[nH]cc(CCc3ccncc3)c2c1 [Compound 43]
Kd / µM: 105
//
MOLECULE: Brc1ccc2[nH]cc(CCc3ccncc3)c2c1 [Compound 9]
Kd / µM: 3.8
//
MOLECULE: Clc1ccc2[nH]cc(CCc3ccncc3)c2c1 [Compound 8]
Kd / µM: 5.8

The recorded Kd for entry Fc1ccc2[nH]cc(CCc3ccncc3)c2c1 [Compound 41] equals 27.3

----------
# SYSTEM NAME: Mtb CYP121A1 (Mycobacterium tuberculosis, UniProt P9WPP7)
# Construct: His6; made in house
# Sequence (P9WPP7 whole entry): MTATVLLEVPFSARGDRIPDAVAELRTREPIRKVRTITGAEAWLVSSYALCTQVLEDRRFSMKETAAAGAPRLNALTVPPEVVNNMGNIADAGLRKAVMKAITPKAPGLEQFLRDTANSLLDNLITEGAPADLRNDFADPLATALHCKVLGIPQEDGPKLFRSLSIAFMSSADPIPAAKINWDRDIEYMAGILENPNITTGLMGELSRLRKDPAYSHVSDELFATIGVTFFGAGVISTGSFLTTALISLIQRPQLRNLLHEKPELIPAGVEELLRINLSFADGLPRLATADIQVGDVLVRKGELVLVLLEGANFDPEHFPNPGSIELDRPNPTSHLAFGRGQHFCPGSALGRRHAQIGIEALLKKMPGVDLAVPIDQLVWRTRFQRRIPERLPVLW
# MEASUREMENT PROTOCOL: Differential scanning fluorimetry (DSF)
# Type: binding
# DETAILS: read-out: ΔTm
TEST READOUT: ΔTm at 1000 µM (°C)
Please respond with the number in °C and leave the unit unwritten.

The examples below pair each entry with its known result.
MOLECULE: c1ccc2c(CCc3nc4c(c(N5CC6CCC(C5)O6)n3)CNC4)c[nH]c2c1
SYSTEM NAME: Mtb CYP121A1 (Mycobacterium tuberculosis, UniProt P9WPP7)
ΔTm at 1000 µM, °C: 2.4
//
MOLECULE: c1ccc2c(CCc3ccncn3)c[nH]c2c1
SYSTEM NAME: Mtb CYP121A1 (Mycobacterium tuberculosis, UniProt P9WPP7)
ΔTm at 1000 µM, °C: 3.5
//
MOLECULE: c1ccc2c(CCc3nc4c(c(N5CCOCC5)n3)CCNC4)c[nH]c2c1
SYSTEM NAME: Mtb CYP121A1 (Mycobacterium tuberculosis, UniProt P9WPP7)
ΔTm at 1000 µM, °C: 1
//
MOLECULE: Oc1ccc2[nH]cc(CCc3ccnc(N4CCOCC4)n3)c2c1
SYSTEM NAME: Mtb CYP121A1 (Mycobacterium tuberculosis, UniProt P9WPP7)
ΔTm at 1000 µM, °C: 0.5
//
MOLECULE: Nc1[nH]nc(-c2ccc(O)cc2)c1-c1ccc(O)cc1 [Compound 45, reference compound]
SYSTEM NAME: Mtb CYP121A1 (Mycobacterium tuberculosis, UniProt P9WPP7)
ΔTm at 1000 µM, °C: 1

Now let's try a different one.
The recorded ΔTm at 1000 µM for entry c1ccc2c(CCc3nc4c(c(N5CCOCC5)n3)CNC4)c[nH]c2c1 equals 3.5

----------
# Test system: Mtb H37Rv
# MEASUREMENT PROTOCOL: Antimycobacterial activity assay (resazurin colorimetric, whole-cell)
# Assay type: cell-based, Mycobacterium tuberculosis
# DETAILS: Mycobacterium tuberculosis, H37RV, 168 h, Mtb H37Rv; 7H9 with low BSA (0.05% albumin, ADN), one week; read-out: MIC90 7H9-Low BSA
TEST READOUT: MIC90 (µM)
Please respond with the number in µM and leave the unit unwritten.

The examples below pair each entry with its known result.
COMPOUND: CO[C@H]1/C=C/O[C@@]2(C)Oc3c(C)c(O)c4c(O)c(c(/C=N/N5CCN(C)CC5)c(O)c4c3C2=O)NC(=O)/C(C)=C\C=C\[C@H](C)[C@H](O)[C@@H](C)[C@@H](O)[C@@H](C)[C@H](OC(C)=O)[C@@H]1C [Rifampicin, reference compound]
SYSTEM NAME: Mtb H37Rv
MIC90 / µM: 0.013
//
COMPOUND: CN1CCN(c2nccc(CCc3c[nH]c4ccc(Br)cc34)n2)CC1
SYSTEM NAME: Mtb H37Rv
MIC90 / µM: 25
//
COMPOUND: c1ccc2c(CCc3ccnc(N4CC5CCC(C4)O5)n3)c[nH]c2c1
SYSTEM NAME: Mtb H37Rv
MIC90 / µM: 50

The recorded MIC90 for entry FC(F)(F)Oc1ccc(-c2nccc(CCc3c[nH]c4ccccc34)n2)cc1 equals 100

The recorded MIC90 for entry Cn1cc(CCc2ccnc(N3CCOCC3)n2)c2ccccc21 equals 25

The recorded MIC90 for entry c1ccc2c(c1)OCCN2c1nccc(CCc2c[nH]c3ccccc23)n1 equals 25

----------
pKd: −log10 of the molar value.
Listed here: compounds with reported pKd for Mtb CYP121A1 (Mycobacterium tuberculosis, UniProt P9WPP7).

COMPOUND: c1ccc2c(CCc3ccnc(N4CCOCC4)n3)c[nH]c2c1
pKd: ~4.00

Now let's try a different one.
# pKd measured on Mtb CYP121A1 (Mycobacterium tuberculosis, UniProt P9WPP7) for item Nc1[nH]nc(-c2ccc(O)cc2)c1-c1ccc(O)cc1 [Compound 45, reference compound] = 4.60 to 4.70
